- system.name: T1, (D31)12b/6 scFv
- T1 construct: also called nonpathogenic PV mAb
- measurement.description: ELISA inhibition, monoclonal peptide phage preincubated with PV scFv, Dsg plate (Dsg3 by paragraph 281)
Where no end group is shown, it is not given here.
Measured percent inhibition values are reported for all entries that follow.
A complete answer gives the number and then names the unit.

ANKTSPFLMWRL (peptide, not shown: large carriers, also: displayed on phage, fused to pIII, Monoclonal phage clone from round 3 of screening with (D31)2/29 IgG; tested as phage particle) [P4 peptide phage] :: 10%

Challenge: Request the reported percent inhibition associated with YSNKTPHLQWRL (peptide, not shown: large carriers, also: displayed on phage, fused to pIII coat protein, linker not given here, Monoclonal phage clone; tested as phage particle) [P7 peptide phage]
Response given: 8%

Challenge: Request the reported percent inhibition associated with DLNYFTLSSKRE (peptide, not shown: large carriers, also: displayed on phage, fused to pIII coat protein, linker not given here, Control phage clone; tested as phage particle; also called control phage) [control peptide phage displaying a non-consensus sequence]
Response given: 11%

Challenge: Request the reported percent inhibition associated with TTLTLRH (peptide, not shown: large carriers, also: displayed on phage, fused to pIII, Monoclonal phage clone; tested as phage particle) [P14 peptide phage]
Response given: 13%
